System: CD8+ T cells
Test: In vitro T-cell priming assay with aAPCs (in vitro immunogenicity for MHC class I presented peptides)
Assay type: cell-based, human
Conditions: in vitro immunogenicity of HLA class I peptides, Table 10a
Text: In order to obtain information regarding the immunogenicity of the TUMAPs of the present invention, the inventors performed investigations using an in vitro T-cell priming assay based on repeated stimulations of CD8+ T cells with artificial antigen presenting cells (aAPCs) loaded with peptide/MHC complexes and anti-CD28 antibody. […]
measurement-type: Wells positive [%]

substance="513 (KLVELEHTL; listed as Homo sapiens) [compound 513]" system_name="CD8+ T cells" reported="+ (<20% = +)"
substance="516 (YTFSGDVQL; listed as Homo sapiens) [compound 516]" system_name="CD8+ T cells" reported="+ (<20% = +)"
substance="498 (EYIRALQQL; listed as Homo sapiens) [compound 498]" system_name="CD8+ T cells" reported="+ (<20% = +)"
substance="528 (RLLDSVSRL; listed as Homo sapiens) [compound 528]" system_name="CD8+ T cells" reported="+ (<20% = +)"
substance="500 (VWSDVTPLTF; listed as Homo sapiens) [compound 500]" system_name="CD8+ T cells" reported="+ (<20% = +)"

// each substance listed below needs its Wells positive [%]
1. 510 (KVLEHVVRV; listed as Homo sapiens) [compound 510]
2. 520 (KIQEMQHFL; listed as Homo sapiens) [compound 520]

Response:
1: + (<20% = +); 2: + (<20% = +)
